- studyTarget: T1, PDZRN3_1, Q9UPQ7
- T1 sequence (Q9UPQ7 244-349, limits assumed, looked up): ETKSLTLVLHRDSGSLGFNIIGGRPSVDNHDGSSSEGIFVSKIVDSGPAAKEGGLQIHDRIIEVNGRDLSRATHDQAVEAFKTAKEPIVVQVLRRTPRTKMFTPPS
- experimentalProtocol: holdup assay
- Set-up: key: below the threshold = too weak to quantify, mostly under pKd 3.1 to 4
- experimentalSetup: plain residues with an end cap or a label only (N-terminal biotin on a linker: ado-ado)
quantityMeasured: pKd

THHRKIHTRV [ZNF599, Q96NL3] = 3.75
DYSNLRETDI [ADRA1D, P25100] = 3.69
DAAHHDESNC [FMNL3, Q8IVF7] = below the threshold
ADEMICITTL [CACNA1D, Q01668] = below the threshold
KLQNPNQSVV [TYRP1, P17643] = below the threshold
EPAKETTTNV [SLC2A3, P11169] = below the threshold
KAEEKPPSKV [SCN4B, Q8IWT1] = below the threshold
QLGSPTADLA [SIPA1, Q96FS4] = below the threshold
IQISELETNV [SLC1A7, O00341] = 3.84
PLATCDETSI [SEMA4F, O95754] = 4.03
EKPIDSETKM [SLC1A3, P43003] = below the threshold
VISSDDLTEL [CAPN6, Q9Y6Q1] = below the threshold
YAEKRMLTEV [KCNA6, P17658] = below the threshold
LLQEEWETVM [PTH1R, Q03431] = 3.83
ELKAEDEVQI [DCHS2, Q6V1P9] = below the threshold
EFKQTSSFLV [JAM1, Q9Y624] = below the threshold
TFSRRPKTRV [CD226, Q15762] = 3.48
VKQYADVEGF [HNRNPK, P61978;P61978-2] = below the threshold
SKQFDKNAYV [CLDN10, P78369] = below the threshold
NISARRFTLC [FAM167B, Q9BTA0] = below the threshold
IGHEDLETAV [DGKI, O75912] = 4.75
HLSTRQGTCV [ATRNL1, Q5VV63] = 3.97
PSVYSRSQYV [CLDN8, P56748] = below the threshold
KSRPENGTVC [TMEM178B, H3BS89] = below the threshold
SRPHTNETSL [MCC, P23508] = 4.99
